The values you see were collected from patent US4605785A.

Measured Hexabarbital sleeping time in %-age of the control, 1 h, listed per entry for reference.
- Test system: hexabarbital oxidase
- TEST METHOD NOTES: Hexabarbital sleeping time (hexabarbital oxidase activity in vivo)
- Parameters: species or system Hann.-Wistar rats
- CONDITION DESCRIPTION: 1 h after single 40 mg./kg. oral dose; hexabarbital sodium 60 mg./kg. i.v.; x ± S.E.
MEASUREMENT NAME: Hexabarbital sleeping time in %-age of the control, 1 h

compound="CCC1(c2ccccc2)C(=O)NC(=O)NC1=O [phenobarbital, reference compound]" target_entity="hexabarbital oxidase" result="250 ± 15.8 % of the control"
compound="CCN(CC)C(=O)COc1ccc(C(O)(CC)c2cccc(C(F)(F)F)c2)cc1 (stereo not drawn)" target_entity="hexabarbital oxidase" result="170 ± 10.0 % of the control"
compound="CCC(O)(c1cc(C)ccc1C)c1ccccc1OCc1ccccc1 (stereo not drawn)" target_entity="hexabarbital oxidase" result="119 ± 7.7 % of the control"
compound="CCN(CC)C(=O)COc1ccccc1C(O)(CC)c1cccc(Cl)c1 (stereo not drawn)" target_entity="hexabarbital oxidase" result="139 ± 14.4 % of the control"
compound="CCOC(=O)COc1ccccc1C(O)(CC)c1cccc(Cl)c1 (stereo not drawn)" target_entity="hexabarbital oxidase" result="117 ± 1.1 % of the control"
compound="CCC(O)(c1ccc(F)cc1)c1ccccc1OCc1ccccc1 (stereo not drawn)" target_entity="hexabarbital oxidase" result="95 ± 20.2 % of the control"
